Listing: IC50 of selected molecules
target: TGF-beta receptor type-1 (Homo sapiens, UniProt P36897); experiment: Inhibition of TGF-beta1 signaling in human HEK293 cells transfected with luciferase and FAST-2 gene expression vector A3-LUX after 16 hrs by luciferase reporter gene assay
Sequence (P36897 whole entry): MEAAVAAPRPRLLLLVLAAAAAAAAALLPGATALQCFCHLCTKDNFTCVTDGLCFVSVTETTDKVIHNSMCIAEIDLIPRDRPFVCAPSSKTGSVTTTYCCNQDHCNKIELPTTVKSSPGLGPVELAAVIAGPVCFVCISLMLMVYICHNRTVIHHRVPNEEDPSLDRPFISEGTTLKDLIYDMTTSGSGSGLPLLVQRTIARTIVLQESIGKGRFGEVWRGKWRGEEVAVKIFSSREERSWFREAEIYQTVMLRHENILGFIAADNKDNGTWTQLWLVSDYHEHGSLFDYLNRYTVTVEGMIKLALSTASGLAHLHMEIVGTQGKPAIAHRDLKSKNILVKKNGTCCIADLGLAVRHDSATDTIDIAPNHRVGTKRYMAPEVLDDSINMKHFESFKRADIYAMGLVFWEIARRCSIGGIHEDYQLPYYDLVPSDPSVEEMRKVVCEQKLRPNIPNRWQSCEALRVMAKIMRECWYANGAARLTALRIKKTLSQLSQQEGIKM
MEASURED PARAMETER: IC50

[[record]]
compound = "c1ccc(-c2n[nH]cc2-c2ccnc(-n3ccnc3)c2)nc1"
tested_system = "TGF-beta receptor type-1 (Homo sapiens, UniProt P36897)"
experimental_result = "88 nM"

[[record]]
compound = "CN1CCN(c2ccc(-c3cc(-c4c[nH]nc4-c4ccccn4)ccn3)cn2)CC1"
tested_system = "TGF-beta receptor type-1 (Homo sapiens, UniProt P36897)"
experimental_result = "32 nM"

[[record]]
compound = "CN(C)CCCOc1ccc(-c2cc(-c3c[nH]nc3-c3ccccn3)ccn2)cn1"
tested_system = "TGF-beta receptor type-1 (Homo sapiens, UniProt P36897)"
experimental_result = "11 nM"

[[record]]
compound = "c1ccc(-c2n[nH]cc2-c2ccnc(-n3cccn3)c2)nc1"
tested_system = "TGF-beta receptor type-1 (Homo sapiens, UniProt P36897)"
experimental_result = "77 nM"

[[record]]
compound = "CN(C)CCOc1ccc(-c2cc(-c3c[nH]nc3-c3ccccn3)ccn2)cc1"
tested_system = "TGF-beta receptor type-1 (Homo sapiens, UniProt P36897)"
experimental_result = "19 nM"

[[record]]
compound = "Cn1cc(-c2cc(-c3c[nH]nc3-c3ccccn3)ccn2)cn1"
tested_system = "TGF-beta receptor type-1 (Homo sapiens, UniProt P36897)"
experimental_result = "68 nM"


These entries and their values trace back to ChEMBL document CHEMBL1828567.
